- target: human M4 (hM4) (Homo sapiens, UniProt P08173)
- Sequence (P08173 1-479): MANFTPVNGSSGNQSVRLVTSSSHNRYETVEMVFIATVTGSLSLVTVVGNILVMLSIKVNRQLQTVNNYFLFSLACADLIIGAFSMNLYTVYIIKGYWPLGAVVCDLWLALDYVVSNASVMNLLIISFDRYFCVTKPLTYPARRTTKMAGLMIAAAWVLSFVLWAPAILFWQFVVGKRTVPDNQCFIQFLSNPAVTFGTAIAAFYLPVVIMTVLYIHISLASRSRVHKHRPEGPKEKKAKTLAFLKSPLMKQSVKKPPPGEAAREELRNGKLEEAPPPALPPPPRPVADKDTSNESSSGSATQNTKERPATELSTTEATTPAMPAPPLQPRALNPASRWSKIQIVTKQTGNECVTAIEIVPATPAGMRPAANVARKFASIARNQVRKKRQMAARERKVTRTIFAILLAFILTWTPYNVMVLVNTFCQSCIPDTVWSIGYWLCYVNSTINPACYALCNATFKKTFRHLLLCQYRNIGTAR
- method: Calcium mobilization assay, hM4/Gqi5-CHO cells, with EC20 acetylcholine (PAM)
- appliedConditions: read-out: hM4 EC50; hM4/Gqi5-CHO cells, calcium mobilization, EC20 fixed concentration of acetylcholine
endpointName: log10 of EC50 (log10 of the value in nM)
# values: log10(EC50), units nM

Input: Given Cc1c(Cl)cnc2sc3c(NCc4ccncc4)ncnc3c12 [Compound 15d] , state its recorded log10 of EC50.
Output: 2.51

Input: Given COCCCNc1nncc2c1sc1nc(C)c(Cl)c(C)c12.Cl [Compound 22g] , state its recorded log10 of EC50.
Output: 2.28

Input: Given Cc1nc2oc3c(NCc4ccc(C(C)(C)O)cc4)ncnc3c2c(C)c1Cl [Compound 14c] , state its recorded log10 of EC50.
Output: 3.08

Input: Given Cc1nc2oc3c(N(C)C)ncnc3c2c(C)c1Cl.Cl [Compound 14e] , state its recorded log10 of EC50.
Output: 3.15

Input: Given Cc1c(Cl)cnc2sc3c(N4CCCC4)ncnc3c12 [Compound 15a] , state its recorded log10 of EC50.
Output: 3.78

Input: Given Cc1c(Cl)cnc2sc3c(NC4CC(c5ccncc5)C4)ncnc3c12 (stereo not drawn) [Compound 15e] , state its recorded log10 of EC50.
Output: 1.91

Input: Given COc1ccc(CNc2nncc3c2sc2nc(C)c(Cl)c(C)c23)cc1F [Compound 22a] , state its recorded log10 of EC50.
Output: 3.11

Input: Given Cc1nc2sc3c(NC4CC(c5ccncc5)C4)ncnc3c2c(C)c1Cl.Cl (stereo not drawn) [Compound 13h] , state its recorded log10 of EC50.
Output: 3.18
